- target_of_assay: human PDE2A1 (Homo sapiens (Human), UniProt O00408)
- Sequence (O00408 other isoform, or with tags, fused parts or gaps): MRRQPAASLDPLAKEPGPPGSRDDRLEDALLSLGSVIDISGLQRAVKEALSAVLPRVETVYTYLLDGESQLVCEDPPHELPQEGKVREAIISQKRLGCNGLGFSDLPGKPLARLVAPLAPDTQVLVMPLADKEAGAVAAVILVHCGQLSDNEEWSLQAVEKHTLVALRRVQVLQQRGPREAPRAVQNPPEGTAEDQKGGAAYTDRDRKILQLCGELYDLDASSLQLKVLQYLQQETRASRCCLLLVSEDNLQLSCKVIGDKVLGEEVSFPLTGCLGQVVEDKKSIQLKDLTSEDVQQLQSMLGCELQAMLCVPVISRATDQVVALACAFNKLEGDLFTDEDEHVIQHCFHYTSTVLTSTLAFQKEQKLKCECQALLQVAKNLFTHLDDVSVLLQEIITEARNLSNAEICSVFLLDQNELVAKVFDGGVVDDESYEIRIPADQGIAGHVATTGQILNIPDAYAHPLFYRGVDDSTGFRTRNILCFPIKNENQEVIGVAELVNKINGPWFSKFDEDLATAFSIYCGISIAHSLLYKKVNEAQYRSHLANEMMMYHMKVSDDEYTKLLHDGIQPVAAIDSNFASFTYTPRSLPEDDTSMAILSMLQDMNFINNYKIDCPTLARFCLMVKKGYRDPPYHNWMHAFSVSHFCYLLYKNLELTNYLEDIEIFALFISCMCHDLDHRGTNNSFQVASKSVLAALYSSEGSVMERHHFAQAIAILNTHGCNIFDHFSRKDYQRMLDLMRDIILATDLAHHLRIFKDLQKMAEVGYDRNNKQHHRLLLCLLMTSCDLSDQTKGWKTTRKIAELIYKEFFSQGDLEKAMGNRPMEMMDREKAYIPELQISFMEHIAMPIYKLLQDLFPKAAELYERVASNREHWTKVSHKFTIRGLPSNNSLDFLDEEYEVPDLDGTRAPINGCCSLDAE
- protocol: PDE selectivity IMAP FP assay, human PDE2A1
- Assay type: biochemical
- particulars: Human PDE2; Lab B; read-out: Human PDE2 Ki (nM) Lab B
endpoint: Ki (nM)

1. CC(C)C(c1ccc(CC(F)(F)F)cc1)n1nc(CO)c2c(=O)[nH]c(N(C)C)nc21 (single isomer, unassigned) [Example 89]    0.21
2. CC(c1ccc(C(C)(F)F)cc1)n1nc(CF)c2c(=O)[nH]c(N(C)C)nc21 (single isomer, unassigned) [Example 194]    6.1
3. CC(c1ccc(C(F)F)cc1)n1nc(CO)c2c(=O)[nH]c(N(C)C)nc21 (single isomer, unassigned) [Example 83]    0.86
4. CN(C)c1nc2c(c(CO)nn2C(c2ccc(C(F)(F)F)cc2F)C2CC2)c(=O)[nH]1 (single isomer, unassigned) [Example 134]    0.047
5. CC(c1ccc(C(F)(F)F)cc1)n1nc(CC(F)F)c2c(=O)[nH]c(O)nc21 (single isomer, unassigned) [Example 292]    137

1: CN(C)c1nc2c(c(CO)nn2C(c2ccc(OC(F)F)c(F)c2)C2CC2)c(=O)[nH]1 (single isomer, unassigned) [Example 122]
2: CC(C)(C)C(c1ccc(C(F)(F)F)cc1)n1nc(C(F)(F)F)c2c(=O)[nH]c(O)nc21 (single isomer, unassigned) [Example 338]
3: CC1(C(c2ccc(C(F)(F)F)c(F)c2)n2nc(CC(F)(F)F)c3c(=O)[nH]c(O)nc32)CC1 (single isomer, unassigned) [Example 249]
Q: Rank by Ki (largest to smallest). Would you mind listing the labels in the order asked for?
A: 3, 2, 1

A: CC(c1ccc(C(C)(F)F)c(F)c1)n1nc(CO)c2c(=O)[nH]c(N(C)C)nc21 (single isomer, unassigned) [Example 106]
B: C=CC(c1ccc(C(F)(F)F)cc1)n1nc(C(F)(F)F)c2c(=O)[nH]c(O)nc21 (centres unmarked) [Example 355]
C: CCC(c1ccc(C(F)(F)F)cc1)n1nc(C(F)F)c2c(=O)[nH]c(O)nc21 (single isomer, unassigned) [Example 286]
Q: Please put the entries in order of rising Ki. Would you mind listing the labels in the order asked for?
A: C, A, B

1: CN(C)c1nc2c(c(CF)nn2C(c2ccc(CC(F)(F)F)cc2)C2CC2)c(=O)[nH]1 (single isomer, unassigned) [Example 192]
2: CC(C)C(c1ccc(C(F)F)cc1)n1nc(CO)c2c(=O)[nH]c(N(C)C)nc21 (single isomer, unassigned) [Example 91]
3: CC(c1ccc(C(C)(F)F)cc1)n1nc(CO)c2c(=O)[nH]c(N(C)C)nc21 (single isomer, unassigned) [Example 102]
Q: Rank by Ki (largest to smallest). Would you mind listing the labels in the order asked for?
A: 3, 1, 2
(3: 9.9 nM, 1: 0.41 nM, 2: 0.18 nM)

Reference for the values: patent US10174037B2
